Biological target: Amine oxidase [flavin-containing] B (Homo sapiens)
Sequence (P27338 whole entry): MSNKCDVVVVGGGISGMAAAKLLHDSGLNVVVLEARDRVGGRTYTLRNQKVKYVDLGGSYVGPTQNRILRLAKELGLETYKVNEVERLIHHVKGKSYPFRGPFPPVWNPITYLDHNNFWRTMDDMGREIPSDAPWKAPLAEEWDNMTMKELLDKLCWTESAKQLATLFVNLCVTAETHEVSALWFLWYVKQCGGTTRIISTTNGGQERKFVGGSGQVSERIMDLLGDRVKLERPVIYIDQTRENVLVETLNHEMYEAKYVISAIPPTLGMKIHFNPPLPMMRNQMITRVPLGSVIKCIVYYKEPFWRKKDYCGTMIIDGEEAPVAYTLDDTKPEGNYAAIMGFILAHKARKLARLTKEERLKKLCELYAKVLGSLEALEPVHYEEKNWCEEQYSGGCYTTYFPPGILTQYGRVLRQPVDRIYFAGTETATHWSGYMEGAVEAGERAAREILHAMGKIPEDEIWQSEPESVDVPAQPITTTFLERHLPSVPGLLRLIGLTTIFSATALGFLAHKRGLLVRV
Assay: Inhibition of human recombinant MAOB expressed in baculovirus-infected BTI insect cells after 15 mins by fluorimetric assay
property.name: IC50 (nM)

[A] COc1ccc(NC(=O)c2coc3ccccc3c2=O)cc1
[B] CSc1ccc(NC(=O)c2coc3ccccc3c2=O)cc1
Data request: For the pair A and B , which entry has the numerically smaller recorded IC50? Bench note: the answer is the label of the chosen record.
Data returned: B
(B: 120 nM, A: 450 nM)

---

Biological target: Amine oxidase [flavin-containing] A (Homo sapiens, UniProt P21397)
Sequence (P21397 whole entry): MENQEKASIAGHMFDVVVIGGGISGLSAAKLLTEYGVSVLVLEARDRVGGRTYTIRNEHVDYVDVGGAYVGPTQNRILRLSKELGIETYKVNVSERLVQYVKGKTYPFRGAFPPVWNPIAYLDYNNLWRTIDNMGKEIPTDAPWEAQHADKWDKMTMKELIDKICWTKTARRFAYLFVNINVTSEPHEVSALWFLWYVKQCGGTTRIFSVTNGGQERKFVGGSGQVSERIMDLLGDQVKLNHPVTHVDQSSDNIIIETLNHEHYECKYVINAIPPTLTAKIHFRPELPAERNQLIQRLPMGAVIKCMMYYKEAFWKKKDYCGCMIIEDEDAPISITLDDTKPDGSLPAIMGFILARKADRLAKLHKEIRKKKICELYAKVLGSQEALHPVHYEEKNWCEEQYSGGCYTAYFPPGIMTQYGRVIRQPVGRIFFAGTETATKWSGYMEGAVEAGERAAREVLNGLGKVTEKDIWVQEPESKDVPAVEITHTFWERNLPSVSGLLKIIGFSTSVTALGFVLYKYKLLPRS
Test: Inhibition of human recombinant MAOA expressed in baculovirus-infected BTI insect cells at 100 uM after 15 mins by fluorimetric assay
Details: 0.25 h
property.name: inhibition (INH)

Please review the entries below; each comes with its answer.
smiles.input: COc1ccc(NC(=O)c2coc3ccccc3c2=O)cc1
system: Amine oxidase [flavin-containing] A (Homo sapiens, UniProt P21397)
result: Not Active
//
smiles.input: O=C(Nc1ccccc1)c1cc(=O)c2ccccc2o1
system: Amine oxidase [flavin-containing] A (Homo sapiens, UniProt P21397)
result: Not Active
//
smiles.input: O=C(Nc1ccc(I)cc1)c1cc(=O)c2ccccc2o1
system: Amine oxidase [flavin-containing] A (Homo sapiens, UniProt P21397)
result: Not Active
//
smiles.input: CSc1ccc(NC(=O)c2coc3ccccc3c2=O)cc1
system: Amine oxidase [flavin-containing] A (Homo sapiens, UniProt P21397)
result: Not Active
//
smiles.input: Cc1ccc(NC(=O)c2cc(=O)c3ccccc3o2)cc1
system: Amine oxidase [flavin-containing] A (Homo sapiens, UniProt P21397)
result: Not Active
//
smiles.input: CSc1ccc(NC(=O)c2cc(=O)c3ccccc3o2)cc1
system: Amine oxidase [flavin-containing] A (Homo sapiens, UniProt P21397)
result: Not Active

For the next question, use this compound.
Data request: Identify the reported inhibition (INH) for the following entry. "COc1ccc(NC(=O)c2cc(=O)c3ccccc3o2)cc1"
Data returned: Not Active
